- assay.info: change in splice reporter luminescence, either direction, cell-based, HEK293, spliceosome inhibition project, primary screen (AID 1101);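 also: HEK293 cells carrying a splicing-competent luciferase reporter gene; test concentration not given here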
- setup.conditions: HEK293 splicing luciferase reporter, 24 h, higher = more signal, called active from +8 up or from −8 down
assay.readout: z-score
Please respond with just the number, no unit label.

Input line: Query z-score for `COCCOC(=O)N1C(=O)[C@@]2(c3cc(C#CCNC(N)=O)ccc31)[C@H](C(N)=O)[C@H]1C(=O)O[C@H](c3ccccc3)[C@H](c3ccccc3)N1[C@@H]2c1ccc(OCCO)cc1`
Output line: 0.731

Input line: Query z-score for `C=CCNC(=O)[C@@H]1[C@H]2C(=O)O[C@H](c3ccccc3)[C@H](c3ccccc3)N2[C@H](c2ccc(O)cc2)[C@@]12C(=O)Nc1ccc(C#CCCO)cc12`
Output line: -0.831

Input line: Query z-score for `O=C(N1CCOCC1)[C@@]1(CCS(=O)(=O)c2ccccc2)COC(c2ccc(OCCCO)cc2)=N1`
Output line: 0.122

Input line: Query z-score for `O=C(CS)NCCCCCNC(=O)[C@@H]1C[C@@H]2C(=O)N3CCC[C@H]3C(=O)N2[C@@H]1c1ccc(O)cc1`
Output line: 0.466

Input line: Query z-score for C=CCC(OC(C)=O)[C@@H]1[C@@H](N(Cc2cccc3ccccc23)C(=O)Cc2ccc(F)cc2)c2cc(OCCCO)ccc2N1C(=O)Cc1ccc(OC)cc1 (some centres not stated)
Output line: -1.07

Input line: Query z-score for `C=CCNC(=O)[C@H]1[C@@H]2C(=O)O[C@@H](c3ccccc3)[C@@H](c3ccccc3)N2[C@@H](c2ccc(OCCO)cc2)[C@]12C(=O)N(C(=O)OCCOC)c1ccc(C#CC3=CCCCC3)cc12`
Output line: -1.98

Input line: Query z-score for O=C1C2C=CC(C(O)c3cccc4ccccc34)N(Nc3ccccc3)C2C(=O)N1c1ccccc1 (configuration not stated)
Output line: -0.272

Input line: Query z-score for CCN(CC)c1ccc(N2CC=CC34O[C@@H]5/C=C\CCCOC(=O)C5[C@H]3C(=O)N(CCCCCO)[C@@H]4C2=O)cc1 (some centres not stated)
Output line: 0.643

Input line: Query z-score for `COc1ccc([Si](C)(C)[C@@H]2[C@@H](CCO)O[C@]3(C(=O)N(Cc4ccccc4)c4ccc(N5CCCCC5=O)cc43)[C@H]2C)cc1`
Output line: -4.14

Input line: Query z-score for `COC(=O)[C@@]1(Cc2ccccc2)[C@H]2c3cc(C(=O)N4CCCC4)n(Cc4ccc(OC(F)(F)F)cc4)c3C[C@H]2CN1C(=O)c1ccccc1`
Output line: -0.286

Input line: Query z-score for `C[N+](C)(C)CCCCCCNC(=O)[C@@H]1C[C@@H]2C(=O)NCC(=O)N2[C@@H]1c1cccc(OCCO)c1`
Output line: -2.5

Input line: Query z-score for `COCCOC(=O)N1C(=O)[C@@]2(c3cc(C#CC4(O)CCCCCC4)ccc31)[C@H](C(=O)N1CCc3cc(OC)c(OC)cc3C1)[C@H]1C(=O)O[C@H](c3ccccc3)[C@H](c3ccccc3)N1[C@@H]2c1ccccc1OCCO`
Output line: -0.461

Input line: Query z-score for `COCCOC(=O)N1C(=O)[C@@]2(c3cc(C#CCCO)ccc31)[C@H](c1ccc(OCCO)cc1)N1[C@H](c3ccccc3)[C@H](c3ccccc3)OC(=O)[C@H]1[C@@H]2C(=O)N1CCc2cc(OC)c(OC)cc2C1`
Output line: 0.309

Input line: Query z-score for `C[C@@H]1ON(c2ccccc2)[C@H](c2ccccc2)[C@H]1C(=O)N1C(=O)OC[C@H]1Cc1ccccc1`
Output line: -0.34

Input line: Query z-score for `CC(C)CNC(=O)[C@@]1(C)c2ccccc2C(=O)N(Cc2ccccc2)[C@H]1c1ccc(CO)cc1`
Output line: 0.622

Input line: Query z-score for C[C@H]1NC(=O)C([C@@H](C)OCc2ccccc2)NC(=O)[C@@]23C(=O)N[C@@H](Cc4ccccc4)C2[C@H](C)[C@@]2(C)O[C@H]2C3/C=C/CC/C=C/CNC1=O (some centres not stated)
Output line: -1.39

Input line: Query z-score for C[C@]12C(=O)N(CCCO)[C@@H]3C(=O)N(c4ccc(Cl)cc4)CC=CC31O[C@@H]1/C=C\CCCOC(=O)C12 (some centres not stated)
Output line: 0.158

Input line: Query z-score for `COc1cccc(C[C@H]2C[C@@H](CO[Si](C(C)C)(C(C)C)C(C)C)N3C(=O)[C@]4(C(C)=O)O[C@]23[C@H]2C(=O)N(C)C(=O)[C@H]24)c1`
Output line: -1.29

Input line: Query z-score for N#Cc1ccc(NN2C(C(O)c3ccccc3)C=CC3C(=O)N(c4ccccc4)C(=O)C32)cc1 (configuration not stated)
Output line: 1.3

Input line: Query z-score for `COCCCNC(=O)[C@@]1(Cc2ccccc2CN=[N+]=[N-])N=C(c2ccc(OCCCO)cc2)O[C@H]1c1ccccc1N=[N+]=[N-]`
Output line: -1.26

Input line: Query z-score for `Cc1ccc(-c2cccc(=O)o2)cc1`
Output line: 0.613

Input line: Query z-score for `COc1ccc(CCNC(=O)[C@@H]2c3ccccc3C(=O)N(Cc3ccccc3)[C@H]2c2ccc(CO)cc2)cc1`
Output line: -0.575

Input line: Query z-score for `COc1ccc([Si](C)(C)[C@@H]2[C@@H](CC(=O)N(CCO)Cc3ccccc3)O[C@]3(C(=O)N(C)c4c(Br)cc(C)cc43)[C@H]2C)cc1`
Output line: -1.92

Input line: Query z-score for CC(C)C[C@H]1NC(=O)[C@H](C)NC(=O)[C@@]23C(=O)N[C@@H](Cc4ccccc4)C2[C@H](C)[C@@]2(C)O[C@H]2C3/C=C/C/C=C\CNC1=O (some centres not stated)
Output line: 0.271

Input line: Query z-score for `CN(C)CCCN1C(=O)[C@@]2(Cc3ccccc31)c1ccccc1C(=O)N(Cc1ccccc1)[C@H]2c1ccc(CO)cc1`
Output line: -0.773

Input line: Query z-score for `CCCC=C(CCC)[C@@H](NC(=O)Cc1ccccc1)c1ccc(C(=O)OC)cc1`
Output line: 0.797

Input line: Query z-score for `COCC(=C=CC[C@@H](O)c1ccccc1OCCO)C[C@@H](O)c1ccccn1`
Output line: 0.141

* * *

- assay.info: resazurin metabolic signal in A549 cells – cell-based, resazurin fluorescence, 24 h, PK04 Diversity Set, profiling panel (AID 1171); also: test concentration not given here
- setup.conditions: A549 viability, higher = more signal, called active from +8 up or from −8 down
Note to self: class labels come from recorded z-score, ranges listed here: class 1: < -0.7; class 2: ≥ -0.7 and < 0.8; class 3: ≥ 0.8

Input line: State the class of the compound shown: `C[C@@]1([C@@H](NC(=O)c2cccs2)c2ccc(-c3ccccc3)cc2)C[C@H]1C1CCCCC1`
Output line: class 3

Input line: State the class of the compound shown: `COC(=O)C(CC#Cc1ccc2c(c1)[C@]1(C(=O)N2)[C@H](c2ccc(OCCO)cc2)N2[C@H](c3ccccc3)[C@H](c3ccccc3)OC(=O)[C@H]2[C@@H]1C(=O)O)C(=O)OC`
Output line: class 2

Input line: State the class of the compound shown: `Cc1ccc(S[C@]2(C(=O)NCC(C)C)CC(=O)N(C3CCCCC3)[C@@H]2c2ccc(CO)cc2I)cc1`
Output line: class 3

Input line: State the class of the compound shown: `CO[C@H]1O[C@H](CO)[C@@H](OC(=O)Nc2cccc(F)c2)[C@H](OC(=O)Nc2ccc3c(c2)OCO3)[C@H]1OC(=O)Nc1ccc2c(c1)OCO2`
Output line: class 1

Input line: State the class of the compound shown: `CCCC=C(CCC)[C@@H](NS(=O)(=O)c1ccccc1)c1ccc(C(F)(F)F)cc1`
Output line: class 1

Input line: State the class of the compound shown: `[N-]=[N+]=Nc1ccccc1[C@H]1OC(c2ccc(OCCCO)cc2)=N[C@@]1(Cc1ccccc1)C(=O)NCc1ccccc1`
Output line: class 1

Input line: State the class of the compound shown: `COCCCNC(=O)[C@]1(Cc2ccccc2)N=C(c2ccc(OCCCO)cc2)O[C@@H]1c1ccccc1N=[N+]=[N-]`
Output line: class 1

Input line: State the class of the compound shown: `Cc1ccc(S[C@]2(C(=O)NCCN3CCOCC3)CC(=O)N(C3Cc4ccccc4C3)[C@@H]2c2ccc(CO)cc2)cc1`
Output line: class 2

Input line: State the class of the compound shown: `O=C1c2ccccc2[C@](Cc2ccccc2I)(C(=O)NCC(F)(F)F)[C@H](c2ccc(CO)cc2)N1Cc1ccccc1`
Output line: class 3

Input line: State the class of the compound shown: C=CC[C@@]1(C(=O)NCC(O)CO)N=C(c2ccc(OCCCO)cc2)O[C@@H]1c1ccccc1 (some centres undefined)
Output line: class 2

Input line: State the class of the compound shown: `CCOC(=O)C[C@H]1[C@H](OC(=O)c2ccccc2-c2ccccc2)[C@@H](NC(=O)c2ccccc2)c2cc(OCCCO)ccc2N1C(=O)Cc1ccc(OC)cc1`
Output line: class 3

Input line: State the class of the compound shown: `COC(=O)[C@@]1(Cc2ccc(F)cc2)[C@H]2c3cc(C(=O)N(C)C)n(Cc4ccc(C)c(F)c4F)c3C[C@H]2CN1C(=O)c1ccccc1`
Output line: class 2
